Where these numbers come from: patent US20230399394A1

Test Target: T1, Human IL-33-his (human, UniProt O95760 112-270, biotinylated with EZ-Link NHS-Biotin where used as IL-33-his-biotin)
T1 construct: Used plain (SPR, cell assays) and biotinylated (ELISA); also called IL-33-his-biotin
T1 sequence: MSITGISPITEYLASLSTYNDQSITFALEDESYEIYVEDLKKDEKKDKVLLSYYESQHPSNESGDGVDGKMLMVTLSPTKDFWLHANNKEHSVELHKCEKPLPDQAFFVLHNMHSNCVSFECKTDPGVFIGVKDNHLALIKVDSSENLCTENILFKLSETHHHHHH
Method: competition ELISA as Example 10, ST2-Fc on plate; competitor ST2-Fc
This listing pairs binders with measured IC50.

Binder	Unit Label	IC50
871G1-Hu1 (antibody, human IgG4 S228P, kappa, V domains shown, Humanized; also called humanized antibody 871G1-Hu1) VH: QVQLQESGPGLVKPSETLSLTCTVSGFSLSKYGVHWIRQPPGKGLEWIGVLRAGGTISYNSALMSRVTISEDISKSQVSLKLSSVTAADTAVYYCARDHYYYSSFGGFASWGQGTLVTVSS VL: DIQMTQSPSSVSASVGDRVTITCLASQTIGAWLAWYQQKPGKSPKLLIYAATRLADGVPSRFSGSGSGTDFTLTISSLQPEDFATYYCQQLNSTPYTFGQGTKVEIKR	nM	0.404
864F3-Hu4 (antibody, human IgG4 S228P, kappa, V domains shown, Humanized; also called humanized antibody 864F3-Hu4) VH: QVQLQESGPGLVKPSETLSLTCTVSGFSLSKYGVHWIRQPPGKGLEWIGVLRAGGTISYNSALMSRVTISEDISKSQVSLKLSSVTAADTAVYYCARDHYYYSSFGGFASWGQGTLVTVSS VL: DIQMTQSPSSLSASVGDRVTITCLASQTIATWLAWYQQKPGKSPKLLIYAATRLADGVPSRFSGSGSGTDFTLTISSLQPEDFATYYCQQLYNTPYTFGQGTKVEIKR	nM	0.512
871G1-Hu2 (antibody, human IgG4 S228P, kappa, V domains shown, Humanized; also called humanized antibody 871G1-Hu2) VH: QVQLQESGPGLVKPSETLSLTCTVSGFSLSKYGVHWIRQPPGKGLEWLGVLRAGGTISYNSALMSRLTISEDISKSQVSLKLSSVTAADTAVYYCARDHYYYSSFGGFASWGQGTLVTVSS VL: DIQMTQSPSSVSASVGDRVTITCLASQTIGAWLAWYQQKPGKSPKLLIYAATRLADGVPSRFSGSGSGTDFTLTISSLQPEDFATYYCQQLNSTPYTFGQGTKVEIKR	nM	0.361
874F7-Hu2 (antibody, human IgG4 S228P, kappa, V domains shown, Humanized; also called humanized antibody 874F7-Hu2) VH: QVQLQESGPGLVKPSETLSLTCTVSGFSLSKYGVHWIRQPPGKGLEWLGVLRAGGSTGYNSALMSRLTISKDSSKSQVSLKLSSVTAADTAVYYCVRDHYYYSSYGGFVYWGQGTLVTVSS VL: DIQMTQSPSSVSASVGDRVTITCLASQTIGAWLAWYQQKPGKSPKLLIYAATRLADGVPSRFSGSGSGTDFTLTISSLQPEDFATYYCQQLDSSPYTFGQGTKVEIKR	nM	0.35
